TARGET OF ASSAY: 5-HT1D receptor (Bos taurus, UniProt F1MGM3)
Construct: the caudate nuclei were dissected out and frozen at -70° C; tissue Pel-Freeze Biologicals; host or cells: bovine caudate nuclei, washed membranes
Sequence (F1MGM3 1-403): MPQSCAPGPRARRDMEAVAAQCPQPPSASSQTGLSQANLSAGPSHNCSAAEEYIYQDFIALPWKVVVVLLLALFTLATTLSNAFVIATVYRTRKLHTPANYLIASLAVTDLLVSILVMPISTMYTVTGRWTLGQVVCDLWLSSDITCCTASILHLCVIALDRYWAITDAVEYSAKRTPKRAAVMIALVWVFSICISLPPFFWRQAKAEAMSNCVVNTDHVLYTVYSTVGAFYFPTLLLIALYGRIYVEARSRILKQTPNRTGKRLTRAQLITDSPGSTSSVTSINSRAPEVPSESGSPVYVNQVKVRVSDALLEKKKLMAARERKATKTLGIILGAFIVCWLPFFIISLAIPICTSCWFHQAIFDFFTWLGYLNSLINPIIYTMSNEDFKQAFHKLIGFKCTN
ASSAY: [3H]5-HT binding to 5-HT1D sites in caudate nuclei membranes
MEASUREMENT SETUP: bovine caudate membranes, [3H]5-HT 1.7-1.9 nM, pH 7.4, 37° C
Measured pIC50 by item
Just so you know, pIC50 here is -log10 of the concentration in molar units; reply with that number alone.

A selection of reference data follows.
CCCN(CCC)C1Cc2c[nH]c3ccc(C(=O)C(C)(C)C)c(c23)C1 (racemic) [Example 1] | 8.70
CCCN(CCC)C1Cc2c[nH]c3ccc(C(C)=O)c(c23)C1 (racemic) [Example 2] | 7.74
CCCN(CCC)[C@@H]1Cc2c[nH]c3ccc(C(C)=O)c(c23)C1 [Example 8] | 7.02
CCCN(CCC)[C@H]1Cc2c[nH]c3ccc(C(=O)C(C)C)c(c23)C1 [Example 9] | 8.90

Pending compound:
Data point: CCCN(CCC)[C@H]1Cc2c[nH]c3ccc(C(C)=O)c(c23)C1 [Example 7] ; pIC50 = 8.13

###

System: serotonin
ASSAY: whole brain serotonin concentration in vivo in rats
Set-up: species or system rat (male albino)
MEASUREMENT SETUP: 0.0003 mg/kg s.c., 1 hour, series 0.0003-0.03 mg/kg
Protocol: In another experiment certain compounds of the Examples were evaluated to determine ability to affect the 5-hydroxyindoles serotonin and 5-hydroxyindole acetic acid (5HIAA), and serum corticosterone, in vivo. […] The serum corticosterone concentration was measured spectrofluorometrically using the procedure of Solem and Brinck-Johnson, "An Evaluation of a Method for Determination of Free Corticosteroids in Minute Quantities of Mouse Plasma", Scand. […]
ASSAY ENDPOINT: Serotonin

A selection of reference data follows.
CCCN(CCC)[C@H]1Cc2c[nH]c3ccc(C(=O)C(C)C)c(c23)C1 | 2.76 ± 0.10 nmol/g
CCCN(CCC)[C@@H]1Cc2c[nH]c3ccc(C(C)=O)c(c23)C1 | 2.91 ± 0.12 nmol/g
CCCN(CCC)[C@H]1Cc2c[nH]c3ccc(C(C)=O)c(c23)C1 | 2.68 ± 0.11 nmol/g

Pending molecule:
serotonin data for CCCN(CCC)C1Cc2c[nH]c3ccc(C(C)=O)c(c23)C1 (racemic) ; its Serotonin: 2.71 ± 0.06 nmol/g

###

Measured Serum Corticosterone by item
System: serum corticosterone
ASSAY: serum corticosterone concentration in vivo in rats
Design: species or system rat (male albino)
MEASUREMENT SETUP: 3 mg/kg s.c., 1 hour; series 0.03-3 mg/kg
Return type: number; implicit unit microg./100 ml.

A selection of reference data follows.
CCCN(CCC)[C@@H]1Cc2c[nH]c3ccc(C(C)=O)c(c23)C1 | 45.4
CCCN(CCC)[C@H]1Cc2c[nH]c3ccc(C(=O)C(C)C)c(c23)C1 | 30.8
CCCN(CCC)C1Cc2c[nH]c3ccc(C(=O)C(C)(C)C)c(c23)C1 (racemic) | 44.2

Data point: CCCN(CCC)C1Cc2c[nH]c3ccc(C(C)=O)c(c23)C1 (racemic) ; Serum Corticosterone = 13.8
